The reported numbers originate from patent US12486234B2.

# targetDesc: PAPD5 (Homo sapiens, UniProt Q8NDF8)
# Construct: made in house
# Sequence (Q8NDF8 68-698 isoform Q8NDF8-5 limits assumed): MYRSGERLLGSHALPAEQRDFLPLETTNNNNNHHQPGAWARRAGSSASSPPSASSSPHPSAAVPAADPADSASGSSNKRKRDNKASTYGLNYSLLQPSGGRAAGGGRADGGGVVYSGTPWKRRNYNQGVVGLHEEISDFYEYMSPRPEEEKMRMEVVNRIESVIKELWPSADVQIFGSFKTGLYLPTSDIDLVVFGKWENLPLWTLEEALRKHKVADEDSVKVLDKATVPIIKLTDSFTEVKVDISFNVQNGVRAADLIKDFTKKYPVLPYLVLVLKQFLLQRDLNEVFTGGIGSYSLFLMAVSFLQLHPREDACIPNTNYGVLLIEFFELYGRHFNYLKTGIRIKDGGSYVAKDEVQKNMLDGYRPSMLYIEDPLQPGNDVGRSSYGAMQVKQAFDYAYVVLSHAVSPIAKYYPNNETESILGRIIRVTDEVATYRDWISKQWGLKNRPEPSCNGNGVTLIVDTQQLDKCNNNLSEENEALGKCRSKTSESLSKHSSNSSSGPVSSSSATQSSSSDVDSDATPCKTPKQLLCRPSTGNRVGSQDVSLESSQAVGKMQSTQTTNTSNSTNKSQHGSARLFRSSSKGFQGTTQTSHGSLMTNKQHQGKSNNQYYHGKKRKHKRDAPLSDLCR
# testMethodNotes: DSF binding assay (shift in temperature)
# conditionDescription: shift in temperature at 100 μM of the compound
# Experimental: Qualitative measure of RNA oligo-extension inhibition for the tested compounds, expressed as range from minimal activity (0) to that of compound 1 (+++), and results of a DSF binding assay (shown as shift in temperature at 100 μM of the compound) are shown in the Table 2 below.
observable: ΔTm at 100 µM (°C)

{"molecule": "CCOC(=O)c1cnc2ccc(-c3cccc4[nH]ccc34)cc2c1Nc1ccccc1C(=O)O [Compound 23A]", "numericValue": 4.6}
{"molecule": "NS(=O)(=O)c1cnc2ccc(Br)cc2c1Nc1ccccc1C(=O)O [Compound 61A]", "numericValue": 11.1}
{"molecule": "O=C(O)c1ccccc1Nc1c(C(=O)N2CCNCC2)cnc2ccc(OC(F)(F)F)cc12 [Compound 14A]", "numericValue": 1.7}
{"molecule": "COc1cccc(Nc2c(S(=O)(=O)N3CCOCC3)cnc3ccc(Br)cc23)c1C(=O)O [Compound 78A-INT]", "numericValue": 1.1}
{"molecule": "COCCCOc1cc2ncc(C#N)c(-n3ccc(=O)c(C(=O)O)c3)c2cc1OC [Compound 56A]", "numericValue": 0.4}
{"molecule": "CCOC(=O)c1cnc2ccc(-n3ccc4cc(O)ccc43)cc2c1Nc1ccccc1C(=O)O [Compound 29A]", "numericValue": 4.9}
{"molecule": "CCOC(=O)c1cnc2ccc(OC3CCNCC3)cc2c1Nc1ccccc1C(=O)O [Compound 19A]", "numericValue": 0.6}
{"molecule": "COc1cccc(Nc2c(S(=O)(=O)N3CCOCC3)cnc3ccc(Cl)cc23)c1C(=O)O [Compound 79A-INT]", "numericValue": 0}
{"molecule": "O=c1c2cnc3ccc(OC(F)(F)F)cc3c2[nH]c2ccnn12 [Compound 30A]", "numericValue": 1.7}
{"molecule": "Nc1cccc(Nc2c(S(=O)(=O)N3CCOCC3)cnc3ccc(Br)cc23)c1C(=O)O [Compound 85A-BP]", "numericValue": 6.8}
{"molecule": "CN(C)C(=O)c1cnc2ccc(OC(F)(F)F)cc2c1Nc1ccccc1C(=O)O [Compound 12A]", "numericValue": 6.1}
{"molecule": "COc1cccc(Nc2c(S(=O)(=O)N3CCN(C(=O)OCc4ccccc4)CC3)cnc3ccc(Br)cc23)c1C(=O)O [Compound 93A-INT]", "numericValue": 0}
{"molecule": "CCOC(=O)c1cnc2ccc(C(=O)N3CCNCC3)cc2c1Nc1ccccc1C(=O)O [Compound 18A]", "numericValue": -0.1}
{"molecule": "CCOC(=O)c1ncn2c1[nH]c(=O)c1cnc3ccc(OC(F)(F)F)cc3c12 [Compound 31A]", "numericValue": 1.8}
{"molecule": "CCOC(=O)c1cnc2ccc(OC(F)(F)F)cc2c1Nc1scnc1C(=O)O", "numericValue": 2.3}
{"molecule": "O=C(O)c1c(O)cccc1Nc1c(S(=O)(=O)N2CCOCC2)cnc2ccc(Br)cc12 [Compound 78A]", "numericValue": 17.1}
{"molecule": "NS(=O)(=O)c1cnc2ccc(Cl)cc2c1Nc1ccccc1C(=O)O [Compound 63A]", "numericValue": 9.3}
